Molecular target: Aromatase (Homo sapiens)
Sequence (P11511 whole entry): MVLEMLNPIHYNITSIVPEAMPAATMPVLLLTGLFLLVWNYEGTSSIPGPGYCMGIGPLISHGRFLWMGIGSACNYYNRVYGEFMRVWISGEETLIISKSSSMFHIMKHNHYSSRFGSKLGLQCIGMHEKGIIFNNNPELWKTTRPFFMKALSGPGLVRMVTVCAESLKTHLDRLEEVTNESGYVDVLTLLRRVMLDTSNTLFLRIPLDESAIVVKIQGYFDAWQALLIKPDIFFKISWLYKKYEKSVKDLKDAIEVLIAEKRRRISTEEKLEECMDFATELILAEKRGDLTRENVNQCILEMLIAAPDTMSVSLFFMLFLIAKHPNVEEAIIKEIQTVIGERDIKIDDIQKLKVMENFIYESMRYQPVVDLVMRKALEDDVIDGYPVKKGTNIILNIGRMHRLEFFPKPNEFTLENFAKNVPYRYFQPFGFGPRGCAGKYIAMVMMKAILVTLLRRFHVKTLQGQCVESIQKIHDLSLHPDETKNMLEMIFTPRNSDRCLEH
Assay: Inhibition of human placental microsomal aromatase assessed as inhibition of [C14]estrone/[C14]estradiol formation using 1.25 uM [C14]androstenedione substrate at 12.5 uM by liquid scintillation counting
Reported inhibition at 12.5 µM values for the following compounds.
// units = %; emit number, no label

Recorded results for 6 compounds are shown here.
record-smiles	tested-target	metric-name	unit-abbrev	measured-value
C[C@@]12C(=CC(=O)C[C@@H]1Sc1ccccc1)CC[C@@H]1[C@@H]2CC[C@]2(C)C(=O)CC[C@@H]12	Aromatase (Homo sapiens)	inhibition at 12.5 µM	%	24.2
C[C@]12CCC(=O)C=C1C[C@@H](Sc1ccc(N)cc1)[C@@H]1[C@@H]2CC[C@]2(C)C(=O)CC[C@@H]12	Aromatase (Homo sapiens)	inhibition at 12.5 µM	%	95
CCN(CC)c1ccc(CS[C@@H]2CC3=CC(=O)CC[C@]3(C)[C@H]3CC[C@]4(C)C(=O)CC[C@H]4[C@H]23)cc1	Aromatase (Homo sapiens)	inhibition at 12.5 µM	%	42.3
CCN(CC)c1ccc(CS[C@H]2CC(=O)C=C3CC[C@@H]4[C@H](CC[C@]5(C)C(=O)CC[C@@H]45)[C@]32C)cc1	Aromatase (Homo sapiens)	inhibition at 12.5 µM	%	36.3
COc1ccc(S[C@@H]2CC3=CC(=O)CC[C@]3(C)[C@H]3CC[C@]4(C)C(=O)CC[C@H]4[C@H]23)cc1	Aromatase (Homo sapiens)	inhibition at 12.5 µM	%	64.9
C[C@]12CCC(=O)C=C1C[C@@H](SCCc1ccccc1)[C@@H]1[C@@H]2CC[C@]2(C)C(=O)CC[C@@H]12	Aromatase (Homo sapiens)	inhibition at 12.5 µM	%	82.8

Field request: inhibition at 12.5 µM | item: C[C@@]12C(=CC(=O)C[C@@H]1SCc1ccccc1)CC[C@@H]1[C@@H]2CC[C@]2(C)C(=O)CC[C@@H]12
15.5

Field request: inhibition at 12.5 µM | item: COc1ccc(CS[C@@H]2CC3=CC(=O)CC[C@]3(C)[C@H]3CC[C@]4(C)C(=O)CC[C@H]4[C@H]23)cc1
63

Field request: inhibition at 12.5 µM | item: CCCCS[C@@H]1CC2=CC(=O)CC[C@]2(C)[C@H]2CC[C@]3(C)C(=O)CC[C@H]3[C@H]12
74.1

Field request: inhibition at 12.5 µM | item: C[C@]12CCC(=O)C=C1C[C@@H](SCCCc1ccccc1)[C@@H]1[C@@H]2CC[C@]2(C)C(=O)CC[C@@H]12
66.4

Field request: inhibition at 12.5 µM | item: CCOC(=O)CS[C@@H]1CC2=CC(=O)CC[C@]2(C)[C@H]2CC[C@]3(C)C(=O)CC[C@H]3[C@H]12
72.4

Field request: inhibition at 12.5 µM | item: C[C@]12CCC(=O)C=C1C[C@@H](SCc1ccccc1)[C@@H]1[C@@H]2CC[C@]2(C)C(=O)CC[C@@H]12
84.1

Field request: inhibition at 12.5 µM | item: C[C@]12CCC(=O)C=C1C[C@@H](Sc1ccccc1)[C@@H]1[C@@H]2CC[C@]2(C)C(=O)CC[C@@H]12
46.7
